- System: HIV-1 (IIIB), HIV-1 (NL4.3)
- procedure_text: microbe, parasite or virus in culture
- Assay type: cell-based
- condition: Human immunodeficiency virus 1, IIIB, MT4; MT-4 cells, 50% protection against HIV-induced cytopathogenic effect, MTT
A collection of molecules and their measured EC50
measured_endpoint: EC50

1. CCCC(C(=O)O)c1c(C)nc2sccc2c1-c1ccc(C)cc1 (stereo not shown) [Cpd 119]: 31.6 µM
2. CCOC(C(=O)O)c1c(C)nc2sc3c(c2c1-c1ccc(C)cc1)CCCC3 (stereo not shown) [Cpd 171]: 0.112 µM
3. Cc1ccc(-c2c(C(CCc3ccccc3)C(=O)O)c(C)nc3sc4c(c23)CCCC4)cc1 (stereo not shown) [Cpd 155]: > 22 µM
4. CCCC(C(=O)O)c1c(C)nc2sc3c(c2c1-c1cccc(Cl)c1)CCCC3 (stereo not shown) [Cpd 138]: 43.3 µM
5. CCCC(C(=O)O)c1c(C)nc2sc3ccccc3c2c1-c1ccc(C)cc1 (stereo not shown) [Cpd 120]: 1.51 µM
6. CCCC(C(=O)O)c1c(C)nc2sc3c(c2c1-c1ccccc1Cl)CCCC3 (stereo not shown) [Cpd 137]: > 111 µM
7. CCCC(C(=O)O)c1c(C)nc2sc3c(c2c1-c1cccc(OC)c1)CCCC3 (stereo not shown) [Cpd 144]: 20 µM
8. CCCC(C(=O)O)c1c(C)nc2sc3c(c2c1-c1ccc(Cl)c(Cl)c1)CCCC3 (stereo not shown) [Cpd 139]: 5.32 µM
9. CCCC(C(=O)O)c1c(C)nc2sc3c(c2c1-c1ccc(C)cc1)CCN(Cc1ccccc1)C3 (stereo not shown) [Cpd 163]: > 23 µM
10. Cc1ccc(-c2c(CC(=O)O)c(C)nc3sc4c(c23)CCC4)cc1 [Cpd 101]: 64.1 µM
11. CCCC(C(=O)O)c1c(C)nc2sc3c(c2c1-c1ccc(C)cc1OC)CCCC3 (stereo not shown) [Cpd 160]: 14.4 µM
12. CCCC(C(=O)O)c1c(C)nc2sc3c(c2c1-c1cccc(C)c1)CCCC3 (stereo not shown) [Cpd 141]: 14.8 µM
13. C=C(C(=O)O)c1c(C)nc2sc3c(c2c1-c1ccc(C)cc1)CCC3 [Cpd 124]: > 117 µM
14. CCCC(c1nnn[nH]1)c1c(C)nc2sc3c(c2c1-c1ccc(C)cc1)CCCC3 (stereo not shown) [Cpd 175]: 8.89 µM
15. CCC[C@H](C(=O)O)c1c(C)nc2sc3c(c2c1-c1ccc(C)cc1)CCCC3 [Cpd 114]: 0.58 µM
16. CCCC(C(=O)O)c1c(C)nc2scc(C)c2c1-c1ccc(C)cc1 (stereo not shown) [Cpd 118]: > 50.2 µM
17. CCCC(C(=O)O)c1c(C)nc2sc3c(c2c1-c1ccco1)CCC3 (stereo not shown) [Cpd 129]: > 130 µM
18. CCCC(C(=O)O)c1c(C)nc2sc3c(c2c1-c1cccnc1)CCCC3 (stereo not shown) [Cpd 150]: 0.78 µM
19. C#CCC(C(=O)O)c1c(C)nc2sc3c(c2c1-c1ccc(C)cc1)CCCC3 (stereo not shown) [Cpd 159]: 7.54 µM
20. Cc1nc2sc3c(c2c(-c2ccc4c5c(ccnc25)CCO4)c1C(OC(C)(C)C)C(=O)O)CCCC3 (stereo not shown) [Cpd 190]: 0.015 µM
21. CCc1sc2nc(C)c(CC(=O)O)c(-c3ccc(C)cc3)c2c1C [Cpd 105]: > 62.7 µM
22. CCCC(C(=O)O)c1c(C)nc2sc3c(c2c1-c1ccc(Cl)cc1)CCCC3 (stereo not shown) [Cpd 148]: 0.53 µM
23. CCCC(C(=O)O)c1c(C)nc2sc3c(c2c1-c1ccc(C)cc1O)CCCC3.N (stereo not shown) [Cpd 161, ammonium salt]: 0.147 µM
24. CCCC(C(=O)NC#N)c1c(C)nc2sc3c(c2c1-c1ccc(C)cc1)CCCC3 (stereo not shown) [Cpd 166]: > 131 µM
25. Cc1ccc(-c2c(C(CC(C)(C)C)C(=O)O)c(C)nc3sc4c(c23)CCCC4)cc1 (stereo not shown) [Cpd 162]: 0.33 µM
26. Cc1ccc(-c2c(C(CCCC(F)(F)F)C(=O)O)c(C)nc3sc4c(c23)CCCC4)cc1 (stereo not shown) [Cpd 147]: 8.79 µM
27. CCCC(C(=O)O)c1c(C)nc2sc3c(c2c1-c1ccc(OC(F)(F)F)cc1)CCCC3 (stereo not shown) [Cpd 151]: 8 µM
28. CCCC(C(=O)O)c1c(C)nc2scc(-c3ccccc3)c2c1-c1ccc(C)cc1 (stereo not shown) [Cpd 143]: > 66 µM

Just for reference, patent US8785638B2 is where these values come from.
